Values from paper PMC8809517

measured-on: T1, GFP-9S library array, motif 4 ND N98E;D124P (synthetic construct, N98E;D124P)
T1 chain: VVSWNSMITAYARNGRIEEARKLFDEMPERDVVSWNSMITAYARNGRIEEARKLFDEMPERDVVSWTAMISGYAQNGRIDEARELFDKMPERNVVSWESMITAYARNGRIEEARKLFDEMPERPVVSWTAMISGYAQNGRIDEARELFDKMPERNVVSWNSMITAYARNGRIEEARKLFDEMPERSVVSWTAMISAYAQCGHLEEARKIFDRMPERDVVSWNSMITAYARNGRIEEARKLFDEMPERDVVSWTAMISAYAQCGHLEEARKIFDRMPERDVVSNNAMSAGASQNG
experiment-summary: high-throughput RNA pulldown from lysate on Ni-NTA beads; HRP: 50 mM Tris pH 8, 150 mM NaCl, 1 mM beta-mercaptoethanol, 50 ug/ml BSA, 3 ug/ml yeast RNA, 0.5% heparin; ITC and FP: Tris pH 8, 200 mM KCl, 5% glycerol; MST: 50 mM Tris pH 8, 200 mM NaCl, 1 mM DTT, BSA, heparin, 0.05% Tween 20
conditions: tags: N-terminal His-eGFP; label: 5' IRDye 800CW
Each entry below lists one item and its recorded pKd value.
// field semantics: pKd = negative decimal log of concentration (mol/L)

binder	pKd
AUUAAACGUGA (ssRNA) [IR-rpoA-A]	6.58

Turning to the following binder.
Look up pKd of AUUAUACGUGA (ssRNA) [IR-rpoA-U] and report it. 6.57
